From: PubChem BioAssay (NCI)

Test system: MCF7 breast
Assay: NCI tumour cell line growth inhibition, 48 h
Let's look at some molecules and their measured TGI.

Example cases with answers are listed next.
{"columns": ["molecule", "experimental-target", "TGI"],
 "data": [
  ["N#CC1C(=O)NC2=C(CCOc3c2ccc2ccccc32)C1c1ccc(F)cc1 (stereo unspecified)", "MCF7 breast", "> 100 µM"],
  ["COc1cccc2cc(-c3nc(C4CCC(C(=O)O)CC4)n4ncnc(N)c34)[nH]c12 (stereo unspecified)", "MCF7 breast", "> 35.7 µM"],
  ["COC(=O)c1cn(CCCCO)nn1", "MCF7 breast", "> 100 µM"],
  ["O=C(Oc1ccc(OC(Oc2ccccc2)c2ccccc2)cc1)c1ccccc1 (stereo unspecified)", "MCF7 breast", "> 31.6 µM"],
  ["Cc1cn(C2CC(N=[N+]=[N-])C(CO)O2)c(=O)n(CCCCO)c1=O (stereo unspecified)", "MCF7 breast", "> 100 µM"]
]}

We next turn to a different molecule, shown below.
[Q] If you can, please state the reported TGI value of CCCCCCCCCCCCCCCCNc1ccc2c(c1)OCCOCCOCCOCCO2 .
[A] 13.2 µM
